assay: half-life of dinalbuphine sebacoyl ester in human blood, HPLC; format: in vitro ADME; conditions: human plasma, n=3; read-out: Elimination Half-life
measure: half-life (min)
Entry rule: numbers only, all in min.

Ask | Dear colleague, I am looking for the recorded half-life of the following molecule: O=C(CCCCCCCCC(=O)Oc1ccc2c3c1O[C@H]1[C@@H](O)CC[C@@]4(O)[C@@H](C2)N(CC2CCC2)CC[C@]314)Oc1ccc2c3c1O[C@H]1[C@@H](O)CC[C@@]4(O)[C@@H](C2)N(CC2CCC2)CC[C@]314 [sebacoyl dinalbuphine ester]
Reply | 9

----------
Experiment: half-life of dinalbuphine sebacoyl ester in dog blood, HPLC
Format: in vitro ADME
Conditions: dog whole blood, n=3; read-out: Elimination Half-life
Experimental: • (a) Dinalbuphine sebacoyl ester was dissolved in acetonitrile, the concentration was 12.5 mg/ml. • (b)200 ml of whole blood was collected from dog administered with the thus formed dinalbuphine sebacoyl ester soft drug, and was added with anticoagulant. All blood collections were analyzed by HPLC.
measure: half-life (min)
Output spec: scalar in min, unitless text.

Ask | Reported half-life, compound O=C(CCCCCCCCC(=O)Oc1ccc2c3c1O[C@H]1[C@@H](O)CC[C@@]4(O)[C@@H](C2)N(CC2CCC2)CC[C@]314)Oc1ccc2c3c1O[C@H]1[C@@H](O)CC[C@@]4(O)[C@@H](C2)N(CC2CCC2)CC[C@]314 : ____
Reply | 30.5
